Target: HIV-1 RT enzyme (wild type) (Human immunodeficiency virus type 1 group M subtype B)
Construct: The reverse transcriptase (RT) enzyme assay has been adapted to a 96-well microtiter plate format
Experiment: Reverse transcriptase (RT) enzymatic assay (IC50), PicoGreen fluorescence, wild type
Assay type: biochemical
Conditions: RT enzymatic assay, wild type; read-out: IC50 WT
Protocol: Reverse Transcriptase (RT) Assays Enzymatic Assay (IC50) The enzymatic assay employed is described as follows: The reverse transcriptase (RT) enzyme assay has been adapted to a 96-well microtiter plate format and uses PicoGreen™ as a fluorescent intercalator. More explicitly, the HIV-1 RT enzyme was thawed and appropriately diluted into Tris/HCl 50 mM pH 7.8 containing NaCl 60 mM, MgCl2∘6H2O 2 mM, DTT 6 mM, GSH 2 mM and 0.02% w/v Chaps to give ≈10 nM enzyme. […]
pIC50: −log10 of the molar value.
Reported pIC50 by item:

Sample records with pIC50:
MOLECULE: O=C(CCc1ccccc1-c1cccc2ccccc12)Nc1ccccc1Cl
TARGET OR SYSTEM: HIV-1 RT enzyme (wild type) (Human immunodeficiency virus type 1 group M subtype B)
MEASURED VALUE: < 7.00
//
MOLECULE: Cc1cc(C)c(-n2nnnc2SCC(=O)Nc2ccccc2[N+](=O)[O-])c(Cl)c1
TARGET OR SYSTEM: HIV-1 RT enzyme (wild type) (Human immunodeficiency virus type 1 group M subtype B)
MEASURED VALUE: > 7.30

Q. Report pIC50, nothing else, for this molecule: O=C(CSc1nnnn1-c1cccc2ccccc12)Nc1ccccc1-n1cccc1
A. < 7.00

Q. Note down pIC50 recorded for O=C(NCCSc1nnnn1-c1cccc2ccccc12)c1ccccc1Cl
A. < 7.00

Q. Please list pIC50 recorded for the molecule OC(COc1ccccc1Cl)CSc1nnnn1-c1cccc2ccccc12 (stereo not drawn)
A. < 7.00

====

test system: HIV-1 resistant mutant K103N/Y181C in C8166 LTRluc cells; assay: C8166 HIV-1 luciferase assay (EC50), resistant mutant; assay type: cell-based; details: Human immunodeficiency virus 1, C8166, read-out: EC50 K103N/Y181C
pEC50: −log10 of the molar value.
MEASUREMENT KIND: pEC50

COMPOUND: C=CCc1ccc(-n2nnnc2SCC(=O)Nc2ccccc2Cl)c(Cl)c1 [Entry 708]
MEASURED VALUE: < 7.00

Q. Please report the measured pEC50 for CN1CCN(c2ccc(NC(=O)CSc3nnnn3-c3ccc(C(C)(C)C)cc3Cl)c(Cl)c2)CC1 [Entry 610] tested on HIV-1 resistant mutant K103N/Y181C in C8166 LTRluc cells.
A. < 7.00

Q. Report value only: pEC50, HIV-1 resistant mutant K103N/Y181C in C8166 LTRluc cells, Cc1ccc(-n2c(CCO)nnc2SCC(=O)Nc2ccc(-c3ccccc3)cc2Cl)c(Cl)c1 [Entry 429]
A. < 7.00

Q. Write down the reported pEC50 (system: HIV-1 resistant mutant K103N/Y181C in C8166 LTRluc cells) of Cc1ccc(Cl)c(-n2nnnc2SCC(=O)Nc2ccccc2[N+](=O)[O-])c1 [Entry 145]
A. < 7.00

Q. Write down measured pEC50 (HIV-1 resistant mutant K103N/Y181C in C8166 LTRluc cells) for this compound. Cc1cc(C)c(-n2nnnc2SCC(=O)Nc2ccccc2[N+](=O)[O-])c(Cl)c1 [Entry 146]
A. 7.00 to 7.30

Q. Report pEC50 under test system HIV-1 resistant mutant K103N/Y181C in C8166 LTRluc cells for CC(C)(C)c1ccc(-n2nnnc2SCC(=O)Nc2ccc(CCC(=O)O)cc2Cl)c(Cl)c1 [Entry 601] .
A. < 7.00

Q. Report pEC50 from HIV-1 resistant mutant K103N/Y181C in C8166 LTRluc cells testing of O=C(CSc1nnnn1-c1cccc2ccccc12)Nc1ccc(-c2ccccc2)cc1Cl [Entry 238]
A. < 7.00

Q. Give reported pEC50 for CC(C)(C)c1ccc(-n2nnnc2SCC(=O)Nc2ccc(C(=O)O)cc2Cl)c(Cl)c1 [Entry 616] (HIV-1 resistant mutant K103N/Y181C in C8166 LTRluc cells)
A. > 7.30

Q. Under HIV-1 resistant mutant K103N/Y181C in C8166 LTRluc cells, report pEC50 for Cc1nnc(SCC(=O)Nc2ccc(S(C)(=O)=O)cc2Cl)n1-c1ccc(C(C)(C)C)cc1Cl [Entry 431]
A. > 7.30

Q. Tell me its pEC50 on HIV-1 resistant mutant K103N/Y181C in C8166 LTRluc cells: CC(C)c1ccc(-n2nnnc2SCC(=O)Nc2ccccc2[N+](=O)[O-])cc1 [Entry 142]
A. < 7.00

Q. Fill: pEC50 (HIV-1 resistant mutant K103N/Y181C in C8166 LTRluc cells) for this compound Cc1ccc(-n2nnnc2SCC(=O)Nc2ccc(-c3ccccc3)cc2Cl)c(Cl)c1 [Entry 510]
A. < 7.00

Q. Would you please give the reported pEC50 of Cc1ccc(-n2nnnc2SCC(=O)Nc2ccc(C(=O)O)cc2Cl)c(Cl)c1 [Entry 503] with HIV-1 resistant mutant K103N/Y181C in C8166 LTRluc cells?
A. < 7.00

Q. Report the value of pEC50 obtained on HIV-1 resistant mutant K103N/Y181C in C8166 LTRluc cells for CC(C)S(=O)(=O)c1ccc(NC(=O)CSc2nnnn2-c2ccc(C(C)(C)C)cc2Cl)c(Cl)c1 [Entry 607] .
A. 7.00 to 7.30

Q. Provide pEC50, system HIV-1 resistant mutant K103N/Y181C in C8166 LTRluc cells, entry CCN(CC)c1ccc(-n2nnnc2SCC(=O)Nc2ccccc2[N+](=O)[O-])cc1 [Entry 143]
A. < 7.00

Q. Recall the reported pEC50 of CC(C)(C)c1ccc(-n2nnnc2SCC(=O)Nc2ccc(S(=O)(=O)c3ccccc3)cc2Cl)c(Cl)c1 [Entry 606] on HIV-1 resistant mutant K103N/Y181C in C8166 LTRluc cells and write it down.
A. 7.00 to 7.30

Q. Please report pEC50 with HIV-1 resistant mutant K103N/Y181C in C8166 LTRluc cells for item O=C(CSc1nnnn1-c1cccc2ccccc12)Nc1ccccc1Cl [Entry 208] .
A. < 7.00

Q. Fill: pEC50 (HIV-1 resistant mutant K103N/Y181C in C8166 LTRluc cells) for this compound CC(C)(C)c1ccc(-n2nnnc2SCC(=O)Nc2ccc(N3CCOCC3)cc2Cl)c(Cl)c1 [Entry 611]
A. < 7.00
